Reference for the values: paper doi:10.1101/2020.12.17.423260

# SYSTEM TESTED: 3Dpol-WT (RNA-dependent RNA polymerase) (Foot-and-mouth disease virus, UniProt P03305 1863-2332)
# Sequence (P03305 1863-2332): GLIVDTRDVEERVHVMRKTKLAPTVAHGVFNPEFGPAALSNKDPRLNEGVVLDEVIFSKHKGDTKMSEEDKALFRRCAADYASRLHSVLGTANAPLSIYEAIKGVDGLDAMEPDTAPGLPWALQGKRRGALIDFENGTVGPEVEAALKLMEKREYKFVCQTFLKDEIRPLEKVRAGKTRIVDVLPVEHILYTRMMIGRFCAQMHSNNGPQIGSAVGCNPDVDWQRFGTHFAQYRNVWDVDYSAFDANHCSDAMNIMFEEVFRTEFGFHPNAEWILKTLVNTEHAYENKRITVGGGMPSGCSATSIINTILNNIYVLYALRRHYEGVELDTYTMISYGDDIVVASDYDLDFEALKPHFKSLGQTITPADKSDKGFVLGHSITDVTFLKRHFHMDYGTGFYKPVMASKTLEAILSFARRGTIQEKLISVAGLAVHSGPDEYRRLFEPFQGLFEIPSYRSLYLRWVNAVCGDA
# ASSAY TEXT: fluorescence polarisation anisotropy
MEASURED PARAMETER: pKd
API: returns pKd as number; meaning -log10 of concentration in mol/L.

Report pKd, nothing else, for this binder: AAAAAAAAAAAAA (ssRNA) [13mer poly-A RNA]
5.23
